- target: Glucocorticoid receptor (Homo sapiens)
- assay_remarks: GR-EFC Redistribution (AID 451); further: potency means the concentration at half of the fitted maximal effect
- particulars: CHO-K1 GR-EFC translocation, beta-gal luminescence, 2 h
Activity calls are given as the source filed them. The call rests on the fitted dose curve.
assay_endpoint: Potency

# smiles_code, assay_endpoint, endpoint_result
records = [
    ("NS(=O)(=O)c1cc2c(cc1Cl)NC(CSCc1ccccc1)=NS2(=O)=O", "Potency", "> 20.6 µM (inactive)"),
    ("Cc1c(Cl)cccc1Nc1ccccc1C(=O)O", "Potency", "> 20.6 µM (inactive)"),
    ("CCCCN(CCCC)CCCOC(=O)c1ccc(N)cc1", "Potency", "> 20.6 µM (inactive)"),
    ("O=c1cc(CO)occ1O", "Potency", "> 46 µM (inactive)"),
    ("CCOc1ccc2ccccc2c1C(=O)N[C@@H]1C(=O)N2[C@@H]1SC(C)(C)[C@@H]2C(=O)O", "Potency", "> 20.6 µM (inactive)"),
    ("CCCCOC(=O)c1ccc(O)cc1", "Potency", "> 20.6 µM (inactive)"),
    ("C[C@H](N)[C@H](O)c1cccc(O)c1", "Potency", "> 20.6 µM (inactive)"),
    ("Nc1ccc(S(=O)(=O)Nc2nccs2)cc1", "Potency", "> 20.6 µM (inactive)"),
    ("Nc1ccc(S(=O)(=O)NC(=O)c2ccccc2)cc1", "Potency", "> 20.6 µM (inactive)"),
    ("CCCCOc1cc(C(=O)OCCN(CC)CC)ccc1N", "Potency", "> 20.6 µM (inactive)"),
    ("Cc1cc(CC(=O)O)n(C)c1C(=O)c1ccc(Cl)cc1", "Potency", "> 20.6 µM (inactive)"),
    ("NC(N)=NCCC[C@H](N)C(=O)O", "Potency", "> 46 µM (inactive)"),
    ("Cc1cc2c(cc1S(N)(=O)=O)S(=O)(=O)CCC2", "Potency", "> 20.6 µM (inactive)"),
]

* * *

- assay_remarks: qHTS assay to identify small molecule inhibitors of chordoma cells - UCH-1 (AID 1259355); further: nearly all actives have a fitted effect of over 55% in size
- particulars: UCH-1 chordoma viability, CellTiter-Glo, 48 h, combination, with auranofin plus four topoisomerase inhibitors; series mostly up to 46.1 µM
Records with an inconclusive call do not appear. Calls of active or inactive are those of the source. Calls follow the shape of the dose curve; as a rule, active = well fitted cell-killing curve with a large enough effect; inconclusive = small, poorly fitted or top-dose-only effect, or effect the other way; inactive = no such curve, though single readings can be large or run the other way.

# molecule, activity, negative = inhibition
records = [
    ("COc1cc(C(=O)N2CCOCC2)cc(OC)c1OC", "inactive"),
    ("NCCNCCNCCNCCN", "inactive"),
    ("CCCCOc1cc(C(=O)OCCN(CC)CC)ccc1N", "inactive"),
    ("CCCCCCCCCCCCCCCC(=O)NCCO", "inactive"),
    ("C[C@@H]1CCN(C(=O)[C@H](CCCN=C(N)N)NS(=O)(=O)c2cccc3c2NC[C@H](C)C3)[C@@H](C(=O)O)C1", "inactive"),
    ("C[C@H]1O[C@H](O[C@H]2[C@H](O)[C@@H](O)[C@@H](O[C@H]3[C@H](O)[C@@H](O)[C@H](O)O[C@@H]3CO)O[C@@H]2CO)[C@H](O)[C@@H](O)[C@@H]1N[C@H]1C=C(CO)[C@@H](O)[C@H](O)[C@H]1O", "inactive"),
    ("CO/N=C(\\C(=O)N[C@@H]1C(=O)N2C(C(=O)O)=C(CSc3nc(=O)c(O)nn3C)CS[C@H]12)c1csc(N)n1", "inactive"),
    ("CCCn1cnc2c1c(=O)n(CCCCC(C)=O)c(=O)n2C", "inactive"),
    ("CCn1cc(C(=O)O)c(=O)c2cnc(N3CCNCC3)nc21", "inactive"),
    ("CN1CCC[C@@H]1Cc1c[nH]c2ccc(CCS(=O)(=O)c3ccccc3)cc12", "inactive"),
    ("C[C@@H]1CN(c2c(F)c(F)c3c(=O)c(C(=O)O)cn(C4CC4)c3c2F)C[C@H](C)N1", "inactive"),
    ("O=C(O)Cc1sc(-c2ccccc2)nc1-c1ccc(Cl)cc1", "inactive"),
    ("O=C(O)c1ccccc1-c1ccc(C(F)(F)F)cc1", "inactive"),
    ("Cc1cc2c(cc1S(N)(=O)=O)S(=O)(=O)CCC2", "inactive"),
    ("CC[C@@]1(c2ccccc2)NC(=O)N(C)C1=O", "inactive"),
    ("CC(C)(C)C(=O)C(Oc1ccc(Cl)cc1)n1ccnc1 (configuration not stated)", "inactive"),
    ("O=S(=O)(O)NC1CCCCC1", "inactive"),
    ("Cc1ccc(C(C)C)cc2c(C)ccc1-2", "inactive"),
    ("CC(COc1ccccc1)NC(C)C(O)c1ccc(O)cc1 (configuration not stated)", "inactive"),
    ("CCOC(=O)c1ccc(O)cc1", "inactive"),
    ("Cc1ncc([N+](=O)[O-])n1CC(O)CCl (configuration not stated)", "inactive"),
    ("COc1ccc2[nH]c(S(=O)Cc3ncc(C)c(OC)c3C)nc2n1 (configuration not stated)", "inactive"),
]

* * *

- assay_remarks: Cytometric Cell-Based qHTS for Inhibitors of the mTORC1 Signaling Pathway in MEF (Tsc2-/-, p53-/-) Cells (AID 2660)
- particulars: mTORC1 pathway cytometry; series mostly up to 38.3 µM
Records with an inconclusive call do not appear. The source made the active and inactive calls. Calls come from the whole dose curve; as a rule, active = well fitted curve in the direction sought with a large enough effect; inconclusive = small, poorly fitted or top-dose-only effect, or another doubt; inactive = no such curve, though single readings can be large or run the other way.
Outcomes: True for active, False for inactive

# compound, group
records = [
    ("CC(C(O)c1ccc(O)cc1)N1CCC(Cc2ccccc2)CC1 (configuration not stated)", "False"),
    ("N=c1c[n+](N2CCOCC2)[n-]o1", "False"),
    ("CCCn1cnc2c1c(=O)n(CCCCC(C)=O)c(=O)n2C", "False"),
    ("CC(CN1c2ccccc2Sc2ccccc21)N(C)C (configuration not stated)", "False"),
    ("CC(CN(C)C)CN1c2ccccc2CCc2ccccc21 (configuration not stated)", "False"),
    ("CCCCCCCCCCCCCCCC(=O)NCCO", "False"),
    ("CC1=C(CC(=O)O)c2cc(F)ccc2/C1=C\\c1ccc(S(C)=O)cc1 (configuration not stated)", "False"),
    ("CN(C)CC[C@@H](c1ccc(Cl)cc1)c1ccccn1", "False"),
    ("CNCCCC1c2ccccc2C=Cc2ccccc21", "False"),
    ("CCN(CC)CCCC(C)Nc1c2ccc(Cl)cc2nc2ccc(OC)cc12 (configuration not stated)", "True"),
    ("COCCOC(=O)C1=C(C)NC(C)=C(C(=O)OC/C=C/c2ccccc2)C1c1cccc([N+](=O)[O-])c1 (configuration not stated)", "False"),
    ("C#CCN(C)Cc1ccccc1", "False"),
]

* * *

- assay_remarks: qHTS of pediatric cancer cell lines to identify multiple opportunities for drug repurposing: Primary screen for A673 cells (AID 1347092); further: nearly all actives have a fitted effect of over 45% in size
- particulars: A673 Ewing sarcoma viability, CellTiter-Glo ATP luminescence, 48 h; series mostly up to 46 µM
Results filed as inconclusive are left out. The source made the active and inactive calls. Calls come from the whole dose curve; as a rule, active = well fitted cell-killing curve with a large enough effect; inconclusive = small, poorly fitted or top-dose-only effect; inactive = no such curve, though single readings can be large or run the other way.
Outcomes: true (1) = active, false (0) = inactive

# molecule, group
records = [
    ("O=C(Oc1ccccc1C(=O)O)c1ccccc1O", "false (0)"),
    ("CSc1ccc2c(c1)N(CCC1CCCCN1C)c1ccccc1S2 (stereo not drawn)", "true (1)"),
    ("CCN(CC)CCOC(=O)C1(C2CCCCC2)CCCCC1", "false (0)"),
    ("NCC(=O)CCC(=O)O", "false (0)"),
    ("CC(C)(C(=O)O)c1ccc(C(O)CCCN2CCC(C(O)(c3ccccc3)c3ccccc3)CC2)cc1 (stereo not drawn)", "false (0)"),
    ("Nc1cc(=O)[nH]c(N)n1", "false (0)"),
    ("CC1(C)CO[C@@H](CC(=O)O)CN1", "false (0)"),
    ("CCCCC(CC)COC(=O)c1ccccc1O (stereo not drawn)", "false (0)"),
    ("COc1ccc2[nH]c(S(=O)Cc3ncc(C)c(OC)c3C)nc2n1 (stereo not drawn)", "false (0)"),
    ("CN(C)CCN(Cc1ccccc1)c1ccccn1", "false (0)"),
    ("O=S(=O)(O)NC1CCCCC1", "false (0)"),
    ("OCc1cc(C(O)CNCCCCCCOCCCCc2ccccc2)ccc1O (stereo not drawn)", "true (1)"),
    ("CN(C)CCOC(C)(c1ccccc1)c1ccccn1 (stereo not drawn)", "false (0)"),
]

* * *

- Tested on: HEK293T
- assay_remarks: qHTS assay to identify novel small-molecules to repurpose for Merkel cell carcinoma treatment (AID 1296009); further: nearly all actives have a fitted effect of over 60% in size
- particulars: MCC and control cell lines, CellTiter-Glo viability, 72 h; at 44.8 µM (top of the series) unless noted
Records with an inconclusive call do not appear. Active and inactive are the calls of the source. The call rests on the fitted dose curve; in most records, active means well fitted inhibition curve with a large enough effect; inconclusive means small, poorly fitted or top-dose-only effect; inactive means flat fitted curve, though single readings scatter.

# compound, outcome
measured = [
    ("N[C@@H](CSCCCO)C(=O)O", "inactive [at 17.4 µM]"),
    ("Oc1cn2c(n1)Nc1ccc(Cl)c(Cl)c1C2", "inactive [at 17.4 µM]"),
    ("COc1ccc2cc1Oc1cc3c(cc1OC)CC[N+](C)(C)[C@H]3Cc1ccc(cc1)Oc1c(OC)c(OC)cc3c1[C@@H](C2)[N+](C)(C)CC3", "inactive"),
    ("CC1(C)CO[C@@H](CC(=O)O)CN1", "inactive"),
    ("C[C@H]1O[C@@H](n2cc(F)c(=O)[nH]c2=O)[C@H](O)[C@@H]1O", "inactive"),
    ("Cn1cc[nH]c1=S", "inactive"),
    ("Nc1ccc(S(=O)(=O)Nc2ccc(Cl)nn2)cc1", "inactive"),
    ("OC[C@H]1O[C@@H](O[C@@H]2[C@@H](CO)O[C@](O)(CO)[C@H]2O)[C@H](O)[C@@H](O)[C@H]1O", "inactive"),
    ("NCCNCCNCCN", "inactive"),
    ("CN(C)CCCO[C@@H]1[C@H]2OC(C)(C)O[C@H]2O[C@@H]1C(O)CO (some centres not stated)", "inactive"),
    ("CCCCC/C(C=O)=C\\c1ccccc1", "inactive"),
    ("CC(COc1ccccc1)NC(C)C(O)c1ccc(O)cc1 (configuration not stated)", "inactive"),
]
